Answer each item with its documented pIC50.
molecular target: Potassium voltage-gated channel subfamily A member 5 (Homo sapiens); assay: Inhibition of Kv1.5 ion channel (unknown origin) expressed in CHO cells by Rb(+) efflux assay; type: cell-based
Sequence (P22460 whole entry): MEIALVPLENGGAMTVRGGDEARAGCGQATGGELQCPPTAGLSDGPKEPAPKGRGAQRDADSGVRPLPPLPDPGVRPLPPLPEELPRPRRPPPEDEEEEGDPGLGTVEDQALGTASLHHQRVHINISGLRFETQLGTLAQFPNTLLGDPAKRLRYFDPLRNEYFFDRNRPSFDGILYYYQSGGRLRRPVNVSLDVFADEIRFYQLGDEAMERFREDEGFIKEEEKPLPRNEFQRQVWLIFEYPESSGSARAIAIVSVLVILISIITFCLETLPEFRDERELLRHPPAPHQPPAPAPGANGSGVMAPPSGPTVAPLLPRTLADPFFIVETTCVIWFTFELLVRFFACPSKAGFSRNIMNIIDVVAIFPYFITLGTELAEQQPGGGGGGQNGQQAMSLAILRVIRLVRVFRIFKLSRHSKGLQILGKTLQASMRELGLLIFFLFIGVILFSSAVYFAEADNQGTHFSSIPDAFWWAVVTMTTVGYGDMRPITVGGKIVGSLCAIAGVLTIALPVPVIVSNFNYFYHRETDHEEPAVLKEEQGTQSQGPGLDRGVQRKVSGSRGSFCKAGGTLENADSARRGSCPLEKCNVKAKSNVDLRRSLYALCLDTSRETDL
Answers are plain numbers, as −log10 of the molar value.

molecule | pIC50
COc1ccc(S(=O)(=O)N[C@H]2CCCC[C@@H]2OCc2ccccc2)cc1 (racemic) | 4.55

# query: pIC50 | item COc1ccc(S(=O)(=O)N(Cc2ccccc2)[C@H]2CCCC[C@@H]2O)cc1 (racemic) | system: Potassium voltage-gated channel subfamily A member 5 (Homo sapiens)
5.70

====

test: Oral bioavailability in Sprague-Dawley rat at 6 umol/kg; assay type: ADME, organism-based; conditions: in vivo
assay_endpoint: bioavailability (%)
One number for each entry, in %.

# input compound: CN1C(=O)CC[C@H]1CN(Cc1ccc(Cl)cc1)S(=O)(=O)c1cccc(C#N)c1 ; wanted: its bioavailability
45
